Data provenance is ChEMBL document CHEMBL2390840.

Please consider the recorded IC50 for Sodium-dependent serotonin transporter (Homo sapiens) in what follows.
Express the result in µM but write the number alone.

*Q* Note IC50 for the molecule shown: C=CCN(CC=C)CCc1c[nH]c2ccc(OC)cc12
*A* 8.71

*Q* Note IC50 for the molecule shown: CC(N)Cc1c[nH]c2ccccc12 (centres undefined)
*A* 2.34

*Q* Note IC50 for the molecule shown: CC(N)Cc1ccc2c(c1)OCO2 (single isomer, unassigned; (-))
*A* 6.76

*Q* Note IC50 for the molecule shown: CN[C@@H](C)Cc1ccc2c(c1)OCO2 (single isomer, unassigned; (+))
*A* 2.75

----------
Target: D(2) dopamine receptor (Homo sapiens)
Assay: Displacement of [3H]N-methylspiperone from human recombinant dopamine D2 receptor expressed in HEK293 cells after 1 to […] by scintillation counting analysis
Type: cell-based
quantity_name: Ki

*Q* Note Ki for the compound shown: CC(N)Cc1c[nH]c2ccccc12 (stereo unspecified)
*A* > 10 µM

----------
Molecular target: Histamine H2 receptor (Homo sapiens)
Assay: Displacement of [3H]Tiotidine from human recombinant histamine H2 receptor expressed in HEK293 cells after 1 to […] by scintillation counting analysis
Assay type: cell-based
Settings: read-out: Ki
quantity_name: Ki (µM)
Express the result in µM but write the number alone.

*Q* Quote Histamine H2 receptor (Homo sapiens) Ki for entry C=CCN(CC=C)CCc1c[nH]c2ccc(OC)cc12 .
*A* 4.25

----------
Record form. Attribute: IC50. Fill in for each entry.
Target: Sodium-dependent noradrenaline transporter (Homo sapiens, UniProt P23975)
Sequence (P23975 whole entry): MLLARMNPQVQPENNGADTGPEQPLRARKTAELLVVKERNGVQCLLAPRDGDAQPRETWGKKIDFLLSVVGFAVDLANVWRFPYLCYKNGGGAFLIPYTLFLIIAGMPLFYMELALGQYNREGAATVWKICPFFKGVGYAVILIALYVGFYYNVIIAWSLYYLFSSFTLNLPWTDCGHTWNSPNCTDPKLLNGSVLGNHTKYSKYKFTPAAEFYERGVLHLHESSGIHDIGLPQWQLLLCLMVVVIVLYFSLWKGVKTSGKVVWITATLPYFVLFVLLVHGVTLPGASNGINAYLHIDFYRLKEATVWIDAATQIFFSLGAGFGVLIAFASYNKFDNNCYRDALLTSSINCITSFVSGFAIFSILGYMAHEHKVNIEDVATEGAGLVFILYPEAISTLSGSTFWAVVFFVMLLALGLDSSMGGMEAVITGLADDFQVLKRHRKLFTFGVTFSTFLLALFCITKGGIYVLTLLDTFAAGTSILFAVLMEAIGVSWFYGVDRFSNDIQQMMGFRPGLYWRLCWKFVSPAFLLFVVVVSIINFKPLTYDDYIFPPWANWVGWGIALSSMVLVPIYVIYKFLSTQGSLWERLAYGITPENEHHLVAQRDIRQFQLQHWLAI
Assay: Inhibition of [3H]norepinephrine uptake at human NET expressed in HEK293 cells preincubated for 10 mins prior to substrate addition measured after 4 mins by […]
Express the result in µM but write the number alone.

*Q* Note IC50 for the compound shown: CC(N)Cc1ccc2c(c1)OCO2 (single isomer, unassigned; (-))
*A* 3.16

*Q* Note IC50 for the compound shown: CC(N)Cc1c[nH]c2ccccc12 (stereo not drawn)
*A* 3.72

*Q* Note IC50 for the compound shown: CN[C@@H](C)Cc1ccc2c(c1)OCO2 (single isomer, unassigned; (+))
*A* 2

----------
Target: 5-hydroxytryptamine receptor 1A (Homo sapiens, UniProt P08908)
Sequence (P08908 whole entry): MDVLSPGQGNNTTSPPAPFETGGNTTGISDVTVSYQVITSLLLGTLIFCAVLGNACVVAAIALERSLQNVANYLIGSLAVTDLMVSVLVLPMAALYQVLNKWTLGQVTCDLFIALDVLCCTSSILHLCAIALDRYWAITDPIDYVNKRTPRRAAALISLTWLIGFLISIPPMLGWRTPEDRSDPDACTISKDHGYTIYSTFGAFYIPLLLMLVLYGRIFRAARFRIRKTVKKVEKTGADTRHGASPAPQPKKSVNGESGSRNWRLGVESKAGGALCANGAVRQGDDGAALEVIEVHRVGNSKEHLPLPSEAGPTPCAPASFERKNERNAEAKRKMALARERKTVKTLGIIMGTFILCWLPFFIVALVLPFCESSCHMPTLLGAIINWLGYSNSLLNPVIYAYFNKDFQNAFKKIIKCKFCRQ
Experiment: Displacement of [3H]8-OH-DPAT from human recombinant 5-HT1A receptor expressed in CHO cells after 1 to […] by scintillation counting analysis
Record form. Attribute: Ki. Fill in for each entry.
Respond with a number, then the unit of measure.

*Q* Note Ki for the compound shown: C=CCN(CC=C)CCc1c[nH]c2ccc(OC)cc12
*A* 0.175 µM

*Q* Note Ki for the compound shown: CC(N)Cc1c[nH]c2ccccc12 (configuration not stated)
*A* 3.24 µM

----------
Target: Sigma non-opioid intracellular receptor 1 (Cavia porcellus, UniProt Q60492)
Sequence (Q60492 whole entry): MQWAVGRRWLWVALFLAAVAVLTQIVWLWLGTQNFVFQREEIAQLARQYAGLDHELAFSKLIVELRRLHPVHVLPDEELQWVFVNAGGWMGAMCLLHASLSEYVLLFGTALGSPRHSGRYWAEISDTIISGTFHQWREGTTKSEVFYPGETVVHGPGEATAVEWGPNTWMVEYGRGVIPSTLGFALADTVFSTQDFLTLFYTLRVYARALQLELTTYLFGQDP
Assay: Displacement of [3H]Pentazocine from guinea pig sigma 1 receptor after 1 to […] by scintillation counting analysis
Details: read-out: Ki
quantity_name: pKi
Interpret pKi as the negative base-10 log of the concentration measured in mol/L.

*Q* Note pKi for the compound shown: C=CCN(CC=C)CCc1c[nH]c2ccc(OC)cc12
*A* 6.40

----------
Target: Sodium-dependent noradrenaline transporter (Homo sapiens)
Test: Displacement of [3H]Nisoxetine from human recombinant norepinephrine transporter expressed in HEK293 cells after 1 to […] by scintillation counting analysis
Format: cell-based
quantity_name: Ki

*Q* Note Ki for the compound shown: CC(N)Cc1c[nH]c2ccccc12 (stereo unspecified)
*A* > 10 µM

----------
Target: UniProt P35368
Assay: Displacement of [3H]Prazosin from human recombinant adrenergic alpha1B receptor expressed in HEK293 cells after 1 to […] by scintillation counting analysis
quantity_name: Ki

*Q* Note Ki for the compound shown: CC(N)Cc1c[nH]c2ccccc12 (stereo unspecified)
*A* > 10 µM

----------
quantity_name: log10(IC50) (log10 of the value in µM)
Units before log transform: µM; reported quantity: IC50; transform: log10.

*Q* Quote Sodium-dependent dopamine transporter (Homo sapiens) log10(IC50) for entry CN(C)CCC=C1c2ccccc2CCc2ccccc21 .
*A* 1.10

*Q* Quote Sodium-dependent dopamine transporter (Homo sapiens) log10(IC50) for entry CC(N)Cc1c[nH]c2ccccc12 (stereo not given) .
*A* 0.27

*Q* Quote Sodium-dependent dopamine transporter (Homo sapiens) log10(IC50) for entry CN[C@@H](C)Cc1ccc2c(c1)OCO2 (single isomer, unassigned; (+)) .
*A* 0.38

*Q* Quote Sodium-dependent dopamine transporter (Homo sapiens) log10(IC50) for entry C=CCN(CC=C)CCc1c[nH]c2ccc(OC)cc12 .
*A* 1.51

*Q* Quote Sodium-dependent dopamine transporter (Homo sapiens) log10(IC50) for entry CC(N)Cc1ccc2c(c1)OCO2 (single isomer, unassigned; (-)) .
*A* 0.79

----------
Record form. Attribute: Ki. Fill in for each entry.
Biological target: Beta-3 adrenergic receptor (Homo sapiens, UniProt P13945)
Sequence (P13945 whole entry): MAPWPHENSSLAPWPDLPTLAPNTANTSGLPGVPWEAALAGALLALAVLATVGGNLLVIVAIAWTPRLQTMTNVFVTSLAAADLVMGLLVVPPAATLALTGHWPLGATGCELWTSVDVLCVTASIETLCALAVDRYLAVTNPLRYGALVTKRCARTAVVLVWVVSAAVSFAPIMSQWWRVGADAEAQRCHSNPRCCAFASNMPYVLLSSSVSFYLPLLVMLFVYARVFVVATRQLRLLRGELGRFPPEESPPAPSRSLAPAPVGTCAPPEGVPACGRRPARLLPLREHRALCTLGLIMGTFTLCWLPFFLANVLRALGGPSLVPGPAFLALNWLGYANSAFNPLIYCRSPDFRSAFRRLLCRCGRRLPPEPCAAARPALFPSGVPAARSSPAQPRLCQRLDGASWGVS
Assay: Displacement of [125I]Iodopindolol from human recombinant adrenergic beta3 receptor expressed in HEK293 cells coexpressing FLP-IN after 1 to […] by scintillation counting analysis

*Q* Note Ki for the compound shown: C=CCN(CC=C)CCc1c[nH]c2ccc(OC)cc12
*A* > 10 µM

*Q* Note Ki for the compound shown: CC(N)Cc1c[nH]c2ccccc12 (configuration not stated)
*A* > 10 µM

----------
Record form. Attribute: Ki. Fill in for each entry.
Target: UniProtKB P28566
Sequence (P28566 whole entry): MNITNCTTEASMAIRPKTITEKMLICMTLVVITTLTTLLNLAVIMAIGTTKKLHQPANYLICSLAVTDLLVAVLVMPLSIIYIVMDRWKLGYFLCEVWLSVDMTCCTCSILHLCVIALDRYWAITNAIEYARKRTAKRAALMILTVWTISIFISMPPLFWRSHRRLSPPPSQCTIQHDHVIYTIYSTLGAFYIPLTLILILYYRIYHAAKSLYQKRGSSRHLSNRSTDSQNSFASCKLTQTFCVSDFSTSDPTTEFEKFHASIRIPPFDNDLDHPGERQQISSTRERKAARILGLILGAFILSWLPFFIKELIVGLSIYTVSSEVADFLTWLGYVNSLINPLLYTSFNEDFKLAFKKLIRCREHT
Assay: Displacement of [3H]5-HT from human recombinant 5-HT1E receptor expressed in HEK293 cells after 1 to […] by scintillation counting analysis
Express the result in nM but write the number alone.

*Q* Note Ki for the molecule shown: C=CCN(CC=C)CCc1c[nH]c2ccc(OC)cc12
*A* 413

*Q* Note Ki for the molecule shown: CC(N)Cc1c[nH]c2ccccc12 (configuration not stated)
*A* 1920

----------
Record form. Attribute: Ki. Fill in for each entry.
Molecular target: Muscarinic acetylcholine receptor M3 (Homo sapiens)
Sequence (P20309 whole entry): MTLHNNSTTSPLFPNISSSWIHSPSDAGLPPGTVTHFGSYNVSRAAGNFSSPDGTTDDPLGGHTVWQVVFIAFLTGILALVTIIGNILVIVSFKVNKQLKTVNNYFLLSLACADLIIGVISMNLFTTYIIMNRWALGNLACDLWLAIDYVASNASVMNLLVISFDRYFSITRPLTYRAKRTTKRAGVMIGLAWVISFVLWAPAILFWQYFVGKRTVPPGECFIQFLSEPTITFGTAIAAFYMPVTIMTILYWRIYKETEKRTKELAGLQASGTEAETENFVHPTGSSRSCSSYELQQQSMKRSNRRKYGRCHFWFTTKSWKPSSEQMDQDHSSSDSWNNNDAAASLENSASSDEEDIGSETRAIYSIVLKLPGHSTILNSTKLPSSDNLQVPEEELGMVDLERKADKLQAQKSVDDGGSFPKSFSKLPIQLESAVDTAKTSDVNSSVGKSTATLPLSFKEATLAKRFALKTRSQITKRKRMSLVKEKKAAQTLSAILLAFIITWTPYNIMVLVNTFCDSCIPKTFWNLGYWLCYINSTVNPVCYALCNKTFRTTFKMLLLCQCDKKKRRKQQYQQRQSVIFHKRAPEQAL
Assay: Displacement of [3H]QNB from human recombinant muscarinic M3 receptor expressed in CHO cells after 1 to […] by scintillation counting analysis

*Q* Note Ki for the molecule shown: C=CCN(CC=C)CCc1c[nH]c2ccc(OC)cc12
*A* > 10 µM

*Q* Note Ki for the molecule shown: CC(N)Cc1c[nH]c2ccccc12 (configuration not stated)
*A* > 10 µM

----------
Target: Mu-type opioid receptor (Homo sapiens)
Sequence (P35372 whole entry): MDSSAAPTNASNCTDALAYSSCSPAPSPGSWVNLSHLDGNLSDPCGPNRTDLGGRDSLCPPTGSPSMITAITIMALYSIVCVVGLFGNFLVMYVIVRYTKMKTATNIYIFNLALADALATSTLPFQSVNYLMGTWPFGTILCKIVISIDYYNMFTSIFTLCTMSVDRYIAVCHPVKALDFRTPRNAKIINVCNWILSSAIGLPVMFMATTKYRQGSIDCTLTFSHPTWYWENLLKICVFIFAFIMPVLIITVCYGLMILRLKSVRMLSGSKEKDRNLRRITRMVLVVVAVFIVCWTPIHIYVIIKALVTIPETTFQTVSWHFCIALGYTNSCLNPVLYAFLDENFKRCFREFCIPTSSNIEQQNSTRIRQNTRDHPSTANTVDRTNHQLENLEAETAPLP
Test: Displacement of [3H]DAMGO from human recombinant mu opioid receptor receptor expressed in HEK293 cells after 1 to […] by scintillation counting analysis
quantity_name: Ki

*Q* Note Ki for the compound shown: CC(N)Cc1c[nH]c2ccccc12 (configuration not stated)
*A* > 10 µM

*Q* Note Ki for the compound shown: C=CCN(CC=C)CCc1c[nH]c2ccc(OC)cc12
*A* > 10 µM

----------
Molecular target: UniProt:P18089
Sequence (P18089 whole entry): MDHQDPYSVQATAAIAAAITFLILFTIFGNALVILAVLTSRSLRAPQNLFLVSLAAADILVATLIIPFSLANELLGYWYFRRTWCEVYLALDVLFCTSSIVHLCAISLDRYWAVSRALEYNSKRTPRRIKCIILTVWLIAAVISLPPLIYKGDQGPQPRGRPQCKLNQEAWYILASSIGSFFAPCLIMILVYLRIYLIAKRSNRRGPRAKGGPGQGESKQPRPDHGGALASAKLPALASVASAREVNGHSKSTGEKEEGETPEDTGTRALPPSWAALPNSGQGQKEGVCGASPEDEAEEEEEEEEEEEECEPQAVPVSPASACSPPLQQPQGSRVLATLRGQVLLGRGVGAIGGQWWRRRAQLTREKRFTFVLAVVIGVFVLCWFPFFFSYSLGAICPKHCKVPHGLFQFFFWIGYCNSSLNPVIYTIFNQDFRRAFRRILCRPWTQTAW
Experiment: Displacement of [3H]Clonidine from human recombinant adrenergic alpha2B receptor expressed in HEK293T cells after 1 to […] by scintillation counting analysis
quantity_name: Ki

*Q* Quote UniProt:P18089 Ki for entry CC(N)Cc1c[nH]c2ccccc12 (stereo unspecified) .
*A* > 10 µM

----------
Record form. Attribute: Ki. Fill in for each entry.
Molecular target: Neuronal acetylcholine receptor; alpha4/beta2 (Homo sapiens, UniProt P17787+P43681)
Sequence (P17787 whole entry): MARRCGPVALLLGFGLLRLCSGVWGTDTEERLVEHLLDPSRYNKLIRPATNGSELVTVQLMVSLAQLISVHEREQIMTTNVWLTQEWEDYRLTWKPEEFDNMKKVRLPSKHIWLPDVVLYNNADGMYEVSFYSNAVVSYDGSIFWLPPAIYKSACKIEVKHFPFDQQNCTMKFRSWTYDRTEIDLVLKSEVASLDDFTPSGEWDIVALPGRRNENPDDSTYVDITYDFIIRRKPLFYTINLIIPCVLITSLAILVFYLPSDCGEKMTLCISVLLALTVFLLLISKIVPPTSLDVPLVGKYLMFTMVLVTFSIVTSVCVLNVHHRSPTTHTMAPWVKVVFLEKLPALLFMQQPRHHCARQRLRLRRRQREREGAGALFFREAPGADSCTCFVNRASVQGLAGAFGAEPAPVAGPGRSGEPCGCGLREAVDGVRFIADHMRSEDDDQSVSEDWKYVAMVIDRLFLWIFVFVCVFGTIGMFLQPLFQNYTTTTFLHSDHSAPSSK
Sequence (P43681 whole entry): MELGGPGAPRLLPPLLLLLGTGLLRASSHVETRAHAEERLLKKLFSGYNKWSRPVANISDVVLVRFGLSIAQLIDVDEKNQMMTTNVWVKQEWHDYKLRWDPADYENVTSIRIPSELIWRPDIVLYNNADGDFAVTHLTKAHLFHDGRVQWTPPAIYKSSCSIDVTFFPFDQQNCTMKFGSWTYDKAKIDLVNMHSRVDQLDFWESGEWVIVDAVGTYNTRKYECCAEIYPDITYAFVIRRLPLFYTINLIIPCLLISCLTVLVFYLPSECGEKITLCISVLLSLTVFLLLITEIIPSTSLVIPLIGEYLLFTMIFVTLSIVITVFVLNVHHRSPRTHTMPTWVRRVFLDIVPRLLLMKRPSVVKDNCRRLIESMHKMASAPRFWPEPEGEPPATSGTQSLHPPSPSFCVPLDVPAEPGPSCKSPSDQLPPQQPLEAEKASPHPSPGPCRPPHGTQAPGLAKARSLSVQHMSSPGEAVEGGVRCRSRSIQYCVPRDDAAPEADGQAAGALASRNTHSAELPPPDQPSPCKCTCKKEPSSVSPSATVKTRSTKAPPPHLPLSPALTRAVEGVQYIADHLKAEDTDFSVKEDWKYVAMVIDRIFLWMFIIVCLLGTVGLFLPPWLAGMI
Experiment: Displacement of [3H]Epibatidine from human recombinant alpha4beta2 nACh receptor expressed in HEK293 cells after 1 to […] by scintillation counting analysis
Assay type: cell-based

*Q* Note Ki for the molecule shown: CC(N)Cc1c[nH]c2ccccc12 (configuration not stated)
*A* > 10 µM

*Q* Note Ki for the molecule shown: C=CCN(CC=C)CCc1c[nH]c2ccc(OC)cc12
*A* > 10 µM

----------
Molecular target: 5-hydroxytryptamine receptor 2C (Homo sapiens)
Sequence (P28335 whole entry): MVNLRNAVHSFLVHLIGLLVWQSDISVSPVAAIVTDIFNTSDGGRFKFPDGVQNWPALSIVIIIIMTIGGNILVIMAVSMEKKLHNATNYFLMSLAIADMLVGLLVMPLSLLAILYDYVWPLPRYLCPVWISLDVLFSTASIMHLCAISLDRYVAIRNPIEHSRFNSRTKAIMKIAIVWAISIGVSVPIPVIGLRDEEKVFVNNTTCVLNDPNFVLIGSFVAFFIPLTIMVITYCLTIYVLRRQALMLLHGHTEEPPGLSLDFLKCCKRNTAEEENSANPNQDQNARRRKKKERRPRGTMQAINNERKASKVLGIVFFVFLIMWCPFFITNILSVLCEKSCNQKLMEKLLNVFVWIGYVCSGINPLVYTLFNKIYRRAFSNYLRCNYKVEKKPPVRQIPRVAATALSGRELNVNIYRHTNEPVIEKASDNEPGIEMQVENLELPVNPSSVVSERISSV
Experiment: Agonist activity at human 5-HT2C receptor expressed in HEK293 cells assessed as increase in calcium mobilization by FLIPR assay
quantity_name: EC50 (nM)
Express the result in nM but write the number alone.

*Q* Quote 5-hydroxytryptamine receptor 2C (Homo sapiens) EC50 for entry C=CCN(CC=C)CCc1c[nH]c2ccc(OC)cc12 .
*A* 9.4

*Q* Quote 5-hydroxytryptamine receptor 2C (Homo sapiens) EC50 for entry CC(N)Cc1c[nH]c2ccccc12 (configuration not stated) .
*A* 107
